Exercise: state measured TGI for each of the molecules provided.
- System: HL-60(TB) leukemia
- test: NCI tumour cell line growth inhibition, 48 h
Please reply with the bare figure in µM and do not write the unit itself.

-- ask System HL-60(TB) leukemia. Read-out TGI. Item "N=C(N)SCc1ccc([N+](=O)[O-])cc1[N+](=O)[O-]" . Report value.
-- reply 17.3

-- ask System HL-60(TB) leukemia. Read-out TGI. Item "C[C@]12CCc3sc(-c4cccc(F)c4)nc3C1=CC[C@@H]1[C@@H]2CC[C@]2(C)C(=O)CC[C@@H]12" . Report value.
-- reply 5.35

-- ask System HL-60(TB) leukemia. Read-out TGI. Item COc1ccc(-c2nc3cc(C(F)(F)F)ccc3n2CC2CCCN3CCCCC23)cc1 (stereo not drawn) . Report value.
-- reply 30.6

-- ask System HL-60(TB) leukemia. Read-out TGI. Item "Oc1ccccc1-c1nn2c(CCCCCCCCc3nnc4sc(-c5ccccc5O)nn34)nnc2s1" . Report value.
-- reply 77.9

-- ask System HL-60(TB) leukemia. Read-out TGI. Item CC1CC(C(=O)OC2OC(COC3OC(CO)C(OC4OC(C)C(O)C(O)C4O)C(O)C3O)C(O)C(O)C2O)C2CCC3(C)C(=CCC4(C)C3CCC3C(C)(CO)C(O)C(O)CC34C)C2C1C (stereo not drawn) . Report value.
-- reply 45.8

-- ask System HL-60(TB) leukemia. Read-out TGI. Item "COC(=O)/C(=C\c1c(-c2ccccc2)[nH]c2ccccc12)S(C)(=O)=O" . Report value.
-- reply 15.1

-- ask System HL-60(TB) leukemia. Read-out TGI. Item "CC(=O)OCCOCCN1CCN(c2c(O)c3c(c(O)c2Cl)C(=O)C=CC3=O)CC1" . Report value.
-- reply 0.238

-- ask System HL-60(TB) leukemia. Read-out TGI. Item "O=C1Nc2ccccc2/C1=C\c1c(Cl)nc2n1CCS2" . Report value.
-- reply 48.8

-- ask System HL-60(TB) leukemia. Read-out TGI. Item "Oc1c(CNCCNCc2cc(Cl)cc(Cc3ccccc3)c2O)cc(Cl)cc1Cc1ccccc1" . Report value.
-- reply 9.84

----------
- Test system: LOX IMVI melanoma
- test: NCI tumour cell line growth inhibition, 48 h
Exercise: state measured TGI for each of the compounds provided.

-- ask State its TGI for this compound: "Cc1cc2c(C(C)C)c(O)c(O)c(C=Nc3ccccc3)c2c(O)c1-c1c(C)cc2c(C(C)C)c(O)c(O)c(C=Nc3ccccc3)c2c1O"
-- reply > 100 µM

-- ask State its TGI for this compound: "CN=C(NC)N(C)c1nc(=[N+](C)C)ss1"
-- reply > 100 µM

-- ask State its TGI for this compound: CC(=O)OC1OC(c2ccoc2)C[C@@]12C1CCC3O[C@]3(C)[C@]1(C)C[C@H](OC(C)=O)[C@H]2C (stereo partly drawn)
-- reply > 75 µM

----------
Exercise: state measured TGI for each of the compounds provided.
- Test system: U251 CNS
- test: NCI tumour cell line growth inhibition, 48 h
Where a SMILES comes first, the peptide text is derived from it. The star is where a group is joined. Cbz = O=C(OCc1ccccc1)*

-- ask System U251 CNS. Read-out TGI. Item "Cc1c(N=NN(C)C)cc[n+]([O-])c1C" . Report value.
-- reply > 100 µM

-- ask System U251 CNS. Read-out TGI. Item "Nc1nc(-c2cc(-c3cccc4ccccc34)nc(N)n2)cc(-c2cccc3ccccc23)n1" . Report value.
-- reply > 100 µM

-- ask System U251 CNS. Read-out TGI. Item "C[C@]12CCc3sc(-c4cccc(F)c4)nc3C1=CC[C@@H]1[C@@H]2CC[C@]2(C)C(=O)CC[C@@H]12" . Report value.
-- reply 13.6 µM

-- ask System U251 CNS. Read-out TGI. Item "Cc1nn(-c2ccccc2)c2nc3ccc(Cl)cc3c(-c3ccccc3)c12" . Report value.
-- reply > 100 µM

-- ask System U251 CNS. Read-out TGI. Item "CC/C(CC(=O)CCC(=O)Nc1ccc(C)c(C)c1)=N\NC(=O)C(N)=O" . Report value.
-- reply > 100 µM

-- ask System U251 CNS. Read-out TGI. Item NC(=O)C1CCCN1C(=O)N(CCCl)N=O (configuration not stated) . Report value.
-- reply > 100 µM

-- ask System U251 CNS. Read-out TGI. Item O=P1(Oc2ccccc2)NCc2ncccc2O1 (configuration not stated) . Report value.
-- reply > 100 µM

-- ask System U251 CNS. Read-out TGI. Item "CC(=O)OCCOCCN1CCN(c2c(O)c3c(c(O)c2Cl)C(=O)C=CC3=O)CC1" . Report value.
-- reply 4.1 µM

-- ask System U251 CNS. Read-out TGI. Item COc1ccc(-c2nc3cc(C(F)(F)F)ccc3n2CC2CCCN3CCCCC23)cc1 (configuration not stated) . Report value.
-- reply 30.7 µM

-- ask System U251 CNS. Read-out TGI. Item "Oc1c2c(c(O)c3ccccc13)C1(N=N2)c2ccccc2Oc2ccccc21" . Report value.
-- reply 16.4 µM

-- ask System U251 CNS. Read-out TGI. Item NC(CO)C(=O)NCC(=O)O (configuration not stated) . Report value.
-- reply > 100 µM

-- ask System U251 CNS. Read-out TGI. Item "COc1ccc2nccc(/C=C/c3ccnc4ccc(OC)cc34)c2c1" . Report value.
-- reply > 100 µM

-- ask System U251 CNS. Read-out TGI. Item Nc1ncnc2nn(C3OC(CO)C(O)C3O)nc12 (configuration not stated) . Report value.
-- reply > 81.6 µM

-- ask System U251 CNS. Read-out TGI. Item Brc1ccc(C2SCc3nc4ccccc4n32)cc1 (configuration not stated) . Report value.
-- reply 25.2 µM

-- ask System U251 CNS. Read-out TGI. Item "COc1cc2cc3c4c(cc(OC)c(OC)c4c2cc1OC)CCN3C(=O)CCC(=O)O" . Report value.
-- reply > 100 µM

-- ask System U251 CNS. Read-out TGI. Item "COC(=O)/C(=C\c1c(-c2ccccc2)[nH]c2ccccc12)S(C)(=O)=O" . Report value.
-- reply 18.3 µM

-- ask System U251 CNS. Read-out TGI. Item "CCN(CC)c1ccc(/C=C/C=C(/C#N)C(N)=S)cc1" . Report value.
-- reply > 100 µM

-- ask System U251 CNS. Read-out TGI. Item Clc1ccc(C2=NOC3C4CCC(C4)C23)cc1 (configuration not stated) . Report value.
-- reply > 100 µM

-- ask System U251 CNS. Read-out TGI. Item "COc1ccc(Oc2cc(NCCC(F)(F)F)c3ncc(-c4ccc(C(=O)NC5CC5)c(C)c4)n3n2)c(F)c1F" . Report value.
-- reply 57.8 µM

-- ask System U251 CNS. Read-out TGI. Item "C[n+]1c(/C=C/c2ccc(/C=N/NC(=O)c3ccc(C(=O)N/N=C/c4ccc(/C=C/c5cn6ccccc6[n+]5C)cc4)cc3)cc2)cn2ccccc21" . Report value.
-- reply > 100 µM

-- ask System U251 CNS. Read-out TGI. Item "Cc1ccc(C)c2c(N=Nc3ccccc3[N+](=O)[O-])c(O)[nH]c12" . Report value.
-- reply > 100 µM

-- ask System U251 CNS. Read-out TGI. Item "CC(=O)OC(=C(C#N)C#N)c1nccnc1C(C)=O" . Report value.
-- reply > 20 µM

-- ask System U251 CNS. Read-out TGI. Item CCOC(=O)CNC(=O)C(C)NC(=O)C(NC(=O)OCc1ccccc1)C(C)C (stereo not drawn) (Cbz-Val-Ala-Gly-OEt; configuration not given here) . Report value.
-- reply > 100 µM

-- ask System U251 CNS. Read-out TGI. Item "Cc1cnc(SCCN2CCN(C)CC2)nc1-c1cc2ccccc2s1" . Report value.
-- reply 21.7 µM

-- ask System U251 CNS. Read-out TGI. Item "N#CCCN(CCC#N)c1ccc(C(N=Nc2ccc(Cl)cc2)=Nc2ccc(Cl)cc2)cc1" . Report value.
-- reply 33.2 µM

-- ask System U251 CNS. Read-out TGI. Item "Cc1[nH]c(=O)nc(N(CCO)/N=C/c2ccc(Cl)cc2)c1C(=O)Nc1ccc(Cl)cc1" . Report value.
-- reply 69.2 µM

-- ask System U251 CNS. Read-out TGI. Item "CC1(C)CC(=O)c2c(ccc(C(=O)C[C@@H](N)CO)c2N)O1" . Report value.
-- reply > 100 µM
